# PROTOCOL NOTES: PK-BBB brain-plasma permeability
# Assay type: in vivo, mouse
# CONDITION INFO: male, ICR, mouse, plasma; 5 mg/kg IV, 0.083 h; read-out: Plasma concentration
PARAMETER MEASURED: concentration at 0.083 h (ng/mL)
Numbers only, in ng/mL.

Ask | Kindly indicate its recorded concentration at 0.083 h. Item: CNc1ccc(NCCc2ccccc2OC)cc1.Cl [KDS12025]
Reply | 1910

----------
# PROTOCOL NOTES: PK-BBB brain-plasma permeability
# Assay type: in vivo, mouse
# CONDITION INFO: male, ICR, mouse, brain; 5 mg/kg IV, 0.083 h; read-out: Brain to plasma ratio (B/P)
PARAMETER MEASURED: Kp at 0.083 h
Answers are plain numbers.

Ask | Read off the recorded Kp at 0.083 h for CNc1ccc(NCCc2ccccc2OC)cc1.Cl [KDS12025]
Reply | 0.9

----------
# TESTED TARGET: HRP (Armoracia rusticana)
# Sequence (P00433 31-353): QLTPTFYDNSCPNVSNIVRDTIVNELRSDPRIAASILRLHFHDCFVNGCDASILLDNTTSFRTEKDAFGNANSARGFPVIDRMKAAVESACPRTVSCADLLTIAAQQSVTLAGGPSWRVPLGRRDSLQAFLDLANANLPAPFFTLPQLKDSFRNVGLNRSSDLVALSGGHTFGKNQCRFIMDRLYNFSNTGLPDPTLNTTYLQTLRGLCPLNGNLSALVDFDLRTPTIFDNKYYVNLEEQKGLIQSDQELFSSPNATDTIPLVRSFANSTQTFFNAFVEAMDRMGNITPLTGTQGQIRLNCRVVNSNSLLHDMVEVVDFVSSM
# PROTOCOL NOTES: H2O2 assay with HRP (HRP-EC50)
# Assay type: biochemical, horseradish
# CONDITION INFO: Tables S2, S3; read-out: HRP-EC50
Hi there, I'd appreciate the recorded EC50 for every entry that follows.
One number for each entry, in µM.

Provide the reported EC50 of each entry below, same order.
1. CNc1ccc(NCCc2ccc(C(F)(F)F)cc2)cc1.Cl
2. CN(C)c1ccc(NCCc2ccc(C(F)(F)F)cc2)cc1.Cl
3. Nc1ccc(O)c(C(=O)O)c1 [Mesalazine, reference compound]
4. COc1ccc(NCCc2ccc(C(F)(F)F)cc2)cc1

Reply |
1. 0.828
2. 0.795
3. 3.6
4. 13.3

----------
# PROTOCOL NOTES: PK-BBB brain-plasma permeability
# Assay type: in vivo, mouse
# CONDITION INFO: male, ICR, mouse, brain; 5 mg/kg IV, 1 h; read-out: Brain to plasma ratio (B/P)
PARAMETER MEASURED: Kp at 1 h
Give bare numbers.

Ask | Name the recorded Kp at 1 h of the item "CNc1ccc(NCCc2ccccc2OC)cc1.Cl" in your answer.
Reply | 0.79

----------
# PROTOCOL NOTES: PK-BBB brain-plasma permeability
# Type: in vivo, mouse
# CONDITION INFO: male, ICR, mouse, brain; 5 mg/kg IV, 0.25 h; read-out: Brain concentration
PARAMETER MEASURED: concentration at 0.25 h

Ask | For "CNc1ccc(NCCc2ccccc2OC)cc1.Cl" , write its concentration at 0.25 h.
Reply | 589 ng/g

----------
Provide the recorded pEC50 for the entries that follow.
# TESTED TARGET: Hb (Homo sapiens)
# Construct: purchased Sigma-Aldrich H7379
# PROTOCOL NOTES: ROS-Glo H2O2 assay with Hb
# Format: biochemical
# CONDITION INFO: Tables S2, S3; read-out: HB-EC50
Numbers only, as −log10 of the molar value.

Illustrative cases are given below, each with its answer.
COMPOUND: CNc1ccc(NCCc2ccc(OC)cc2)cc1 [8e]
pEC50: 7.16

COMPOUND: CNc1ccc(NCCc2ccccc2)cc1 [8f]
pEC50: 7.11

COMPOUND: CNc1ccc(NCCc2cccc(C(F)(F)F)c2)cc1 [8g]
pEC50: 7.05

Required: pEC50, one value per compound below.
1. CNc1ccc(NCCc2ccccc2C(F)(F)F)cc1 [8h]
2. Nc1ccc(O)c(C(=O)O)c1 [Mesalazine, reference compound]
3. CNc1ccc(NCCc2cccc(OC)c2)cc1 [8d]
4. CN(C)c1ccc(NCCc2ccc(C(F)(F)F)cc2)cc1.Cl [KDS12008]
5. O=C(O)c1cc(NCCc2ccc(C(F)(F)F)cc2)ccc1O [HTPEB, reference compound]
6. COc1ccc(NCCc2ccc(C(F)(F)F)cc2)cc1 [7d]

Reply |
1: 7.16; 2: 6.67; 3: 7.07; 4: 7.17; 5: 6.81; 6: 4.63

----------
# PROTOCOL NOTES: PK-BBB brain-plasma permeability
# Assay type: in vivo, mouse
# CONDITION INFO: male, ICR, mouse, brain; 5 mg/kg IV, 0.5 h; read-out: Brain to plasma ratio (B/P)
PARAMETER MEASURED: Kp at 0.5 h
Numbers only.

Ask | Query Kp at 0.5 h for "CNc1ccc(NCCc2ccccc2OC)cc1.Cl"
Reply | 0.84

----------
# TESTED TARGET: Hb (Homo sapiens)
# Construct: purchased Sigma-Aldrich H7379
# PROTOCOL NOTES: ROS-Glo H2O2 assay with Hb
# Assay type: biochemical
# Experimental: Hb (Sigma‒Aldrich, H7379), H2O2 (Sigma‒Aldrich, H1009), and Amplex Red reagents (Invitrogen, A12222) were obtained for the study. A 4 μM H2O2 solution was prepared in 50 mM sodium phosphate buffer (pH 7.2). […] After a 60-min incubation at 37 °C, resorufin production was quantified via a microplate fluorescence reader (SpectraMax iD5, Molecular Devices) at ex/em = 535/580 nm. […] Luminescence was measured via iD5 microplate readers. […]
PARAMETER MEASURED: EC50

Ask | Answer briefly: EC50 recorded on Hb (Homo sapiens) for NCCc1ccc(C(F)(F)F)cc1 [2-(4-(Trifluoromethyl)phenyl)ethylamine, reference compound]
Reply | > 10 µM

----------
# PROTOCOL NOTES: PAMPA BBB permeability
# Format: in vitro ADME
# CONDITION INFO: PAMPA, pH 7.4, 50 μM, read-out: BCS code: permeability classification
Hi there, I'd appreciate the recorded Papp at 4 h, 50 μM for every entry that follows.

Worked cases, Papp at 4 h, 50 μM given:
MOLECULE: CC(=O)[C@H]1CC[C@H]2[C@@H]3CCC4=CC(=O)CC[C@]4(C)[C@H]3CC[C@]12C
Papp at 4 h, 50 μM: > 0.4 ×10⁻⁶ cm/s

MOLECULE: CNC(=C[N+](=O)[O-])NCCSCc1ccc(CN(C)C)o1
Papp at 4 h, 50 μM: < 0.4 ×10⁻⁶ cm/s

MOLECULE: CNc1ccc(NCCc2ccccc2OC)cc1.Cl
Papp at 4 h, 50 μM: > 0.4 ×10⁻⁶ cm/s

Then there is this molecule:
Ask | Output measured Papp at 4 h, 50 μM for this item: O=C(O)c1cc(NCCc2ccc(C(F)(F)F)cc2)ccc1O [HTPEB, reference compound]
Reply | > 0.4 ×10⁻⁶ cm/s

----------
# TESTED TARGET: Hb (Homo sapiens, UniProt P68871)
# Construct: purchased Sigma-Aldrich H7379
# Sequence (P68871 2-147 limits assumed): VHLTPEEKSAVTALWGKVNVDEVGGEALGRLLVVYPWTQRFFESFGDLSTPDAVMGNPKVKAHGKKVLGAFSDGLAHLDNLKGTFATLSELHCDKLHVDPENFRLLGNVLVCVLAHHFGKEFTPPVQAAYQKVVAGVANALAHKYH
# Sequence (P69905 2-142 partner limits assumed): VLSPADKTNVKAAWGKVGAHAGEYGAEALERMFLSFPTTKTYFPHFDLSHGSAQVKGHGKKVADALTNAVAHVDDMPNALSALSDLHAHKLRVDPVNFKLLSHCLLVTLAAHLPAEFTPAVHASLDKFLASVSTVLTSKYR
# PROTOCOL NOTES: ROS-Glo H2O2 assay with Hb
# Assay type: biochemical
# CONDITION INFO: Fig. S1f; read-out: EC50, H2O2 decomposition with human hemoglobin (hHb)
PARAMETER MEASURED: EC50 (µM)
Numbers only, in µM.

Ask | Fill in EC50 for record CNc1ccc(NCCc2ccccc2OC)cc1.Cl [KDS12025]
Reply | 0.033

----------
# PROTOCOL NOTES: PK-BBB brain-plasma permeability
# Assay type: in vivo, mouse
# CONDITION INFO: male, ICR, mouse, plasma; 5 mg/kg IV, 0.25 h; read-out: Plasma concentration
PARAMETER MEASURED: concentration at 0.25 h

Ask | For the molecule CNc1ccc(NCCc2ccccc2OC)cc1.Cl [KDS12025] , report concentration at 0.25 h.
Reply | 782 ng/mL

----------
# PROTOCOL NOTES: In vivo pharmacokinetics (IV, PO)
# CONDITION INFO: male, ICR, mouse, plasma; mice, 5 mg/kg IV; read-out: AUCall, IV
PARAMETER MEASURED: AUC
# answer = value followed by unit

Ask | Tell me its AUC given "CNc1ccc(NCCc2ccccc2OC)cc1.Cl" as the entry.
Reply | 687 ng·h/mL

----------
# TESTED TARGET: HRP (Armoracia rusticana, UniProt P00433)
# Sequence (P00433 31-353): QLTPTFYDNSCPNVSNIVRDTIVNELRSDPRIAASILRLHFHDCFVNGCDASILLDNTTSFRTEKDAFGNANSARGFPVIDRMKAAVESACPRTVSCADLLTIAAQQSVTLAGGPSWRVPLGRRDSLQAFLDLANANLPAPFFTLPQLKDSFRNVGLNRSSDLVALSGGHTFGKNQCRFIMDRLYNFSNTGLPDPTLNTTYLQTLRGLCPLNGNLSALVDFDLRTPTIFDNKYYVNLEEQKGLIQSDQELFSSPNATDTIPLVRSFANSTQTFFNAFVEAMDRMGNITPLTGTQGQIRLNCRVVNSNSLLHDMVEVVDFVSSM
# PROTOCOL NOTES: H2O2 assay with HRP (HRP-EC50)
# Type: biochemical, horseradish
pEC50: −log10 of the molar value.
PARAMETER MEASURED: pEC50

Ask | Return pEC50 for the following molecule: NCCc1ccc(C(F)(F)F)cc1 [2-(4-(Trifluoromethyl)phenyl)ethylamine, reference compound]
Reply | < 5.00

These data points were gathered from paper PMC12373846.
